target: HLA-B*27:05; experiment: IEDB peptide-MHC binding, purified MHC/direct/fluorescence; filed as Kd, often an IC50 or EC50 that approximates it; bounds were set here for any values at or beyond the usual limits of such assays; conditions: source organism: Influenza A virus (A/swine/Korea/S190/2004(H9N2))
pKd: −log10 of the molar value.
parameter_measured: pKd

# sequence_data, system_under_test, reported
records = [
    ("WIPKRNRSI", "HLA-B*27:05", "≤ 4.70"),
]

---

molecular target: HLA-B*40:01; assay: IEDB peptide-MHC binding, purified MHC/competitive/radioactivity; filed as Kd, often an IC50 or EC50 that approximates it; bounds were set here for any values at or beyond the usual limits of such assays; settings: source organism: Dengue virus 1 Brazil/97-11/1997
pKd: −log10 of the molar value.
Classify by measured pKd: Condition met if it is equal to or exceeds 7, Condition not met if it is smaller.

# sequence_data, class_assignment
rows = [
    ("SEMAEALKGM", "Condition not met"),
    ("RELKCGSGI", "Condition met"),
    ("VEPWLRGNQF", "Condition not met"),
    ("KEENLVRSM", "Condition not met"),
    ("LEFEALGFMN", "Condition not met"),
]

---

biological target: HLA-A*02:01; assay: IEDB peptide-MHC binding, purified MHC/direct/fluorescence; filed as Kd, often an IC50 or EC50 that approximates it; bounds were set here for any values at or beyond the usual limits of such assays; conditions: source organism: Coxiella burnetii

# sequence_data, system_under_test, Kd
measured = [
    ("YHFDPVHHL", "HLA-A*02:01", "≥ 20 µM"),
    ("VFFKQWFEK", "HLA-A*02:01", "≥ 20 µM"),
    ("PEIRRWIIF", "HLA-A*02:01", "≥ 20 µM"),
]

---

target: HLA-B*07:02; assay: IEDB peptide-MHC binding, purified MHC/direct/fluorescence; filed as Kd, often an IC50 or EC50 that approximates it; bounds were set here for any values at or beyond the usual limits of such assays; details: source organism: Mycobacterium tuberculosis
parameter_measured: Kd

# sequence_data, parameter_measured, reported
measured = [
    ("ALYLLDGLR", "Kd", "≥ 20 µM"),
    ("TLLESFLFY", "Kd", "≥ 20 µM"),
]

---

target: HLA-B*58:01; assay: IEDB peptide-MHC binding, purified MHC/direct/fluorescence; filed as Kd, often an IC50 or EC50 that approximates it; bounds were set here for any values at or beyond the usual limits of such assays; details: source organism: Orthohantavirus moroense
pKd: −log10 of the molar value.

# sequence_data, pKd
data = [
    ("RMMATKDSF", 8.19),
]

---

biological target: HLA-A*24:02; assay: IEDB peptide-MHC binding, purified MHC/direct/fluorescence; filed as Kd, often an IC50 or EC50 that approximates it; bounds were set here for any values at or beyond the usual limits of such assays; conditions: source organism: Influenza A virus (A/swine/Bakum/5/95(H1N1))

# sequence_data, Kd
rows = [
    ("RGINDRNFW", "≥ 20 µM"),
]

---

target: HLA-A*31:01; assay: IEDB peptide-MHC binding, purified MHC/direct/fluorescence; filed as Kd, often an IC50 or EC50 that approximates it; bounds were set here for any values at or beyond the usual limits of such assays; conditions: source organism: SARS-CoV1

# sequence_data, Kd
data = [
    ("HTLESPVEF", "1.4 µM"),
]
